measure.name: melting point

>  <molecule>
O=C(C=CC1CCCCC1)NCCc1cccc(OCc2ccccc2)c1

>  <observed.value>
98 to 100 °C

$$$$
>  <molecule>
COC(=O)C(C)(C)c1ccc2c(c1)c(=O)[nH]c(=O)n2CCCCBr

>  <observed.value>
164 to 165 °C

$$$$
>  <molecule>
CN(Cc1ccccc1)C(=O)c1c(-c2ccncc2)c(-c2ccc(F)cc2)nn1C

>  <observed.value>
149 to 150 °C

$$$$
>  <molecule>
OC(C#Cc1ccncc1)c1ccccc1 (stereo not given)

>  <observed.value>
93 to 96 °C

$$$$
>  <molecule>
CCCCc1oc2ccc(C#N)cc2c1C(=O)c1ccc(O)cc1

>  <observed.value>
152 to 153 °C

$$$$

###

As shown below, each of these compounds has a reported melting point value.

>  <compound>
CCCCCCCCCCCCOS(=O)(=O)O

>  <melting point>
72 °C

$$$$
>  <compound>
NCCNC(=O)Nc1ccccc1C(=O)NCC1CCN(C(c2ccccc2)c2ccccc2)CC1

>  <melting point>
101 to 103 °C

$$$$
>  <compound>
Cc1nnc2n1-c1ccc(Cl)cc1C(c1ccccc1)=CC2

>  <melting point>
235 °C

$$$$
>  <compound>
CN(C)c1ncc(-c2cccc(Nc3ccc(-c4ccco4)cc3[N+](=O)[O-])c2)cn1

>  <melting point>
160 to 161 °C

$$$$
>  <compound>
CCCCCOc1ccc(C(=O)c2cccc3ccccc23)c2ccccc12

>  <melting point>
72 to 75 °C

$$$$
>  <compound>
Fc1ccc(/C=C/c2nc(COc3cccc(CCCn4ccnn4)c3)co2)c(F)c1

>  <melting point>
89 to 90 °C

$$$$
>  <compound>
C=C1CCC2C3CCc4cc(OC(C)=O)ccc4C3CCC12C (stereo unspecified)

>  <melting point>
77 to 79 °C

$$$$
>  <compound>
Nc1noc(C23CCCN(C2)C3)n1

>  <melting point>
167 to 170 °C

$$$$
>  <compound>
Cc1nc(-n2cnn(CCO)c2=O)sc1C(=O)NCc1cccnc1

>  <melting point>
201 to 202 °C

$$$$
>  <compound>
O=C1CCN(C(=O)c2ccc3nonc3c2)CC1

>  <melting point>
136 to 139 °C

$$$$
>  <compound>
CCOC(=O)C1=C(NC(=O)Nc2cc(C(=O)OC(C)C)c(Cl)cc2Cl)CCC1

>  <melting point>
140 to 142 °C

$$$$
>  <compound>
CCc1ncnc2ccc(I)cc12

>  <melting point>
110 to 113 °C

$$$$
>  <compound>
NC(=O)c1cncnc1

>  <melting point>
175 to 178 °C

$$$$
>  <compound>
NS(=O)(=O)c1cccc(-c2noc(-c3cnn4c(C(F)(F)F)cc(-c5ccc(C(F)(F)F)cc5)nc34)n2)c1

>  <melting point>
262 °C

$$$$
>  <compound>
COc1ccc2c3c1OC1CC(O)C=CC31CCN(C(=O)Nc1ccccc1)C2 (stereo unspecified)

>  <melting point>
198 to 199 °C

$$$$
>  <compound>
CCOC(=O)C(=O)CC(=O)c1cn(Cc2ccc(F)cc2)c2ccc(F)cc2c1=O

>  <melting point>
152 to 153 °C

$$$$

###

Reported melting point values for a set of compounds
measure.name: melting point

>  <compound>
Nc1c(C(=O)O)cc(Br)nc1Br

>  <observed.value>
251 to 253 °C

$$$$
>  <compound>
CC(C)c1ccccc1-n1c(=O)[nH]c2c(C(N)=O)nc(-c3ccc(-n4ccnc4)cc3)nc21

>  <observed.value>
232 °C

$$$$
>  <compound>
CC(C)NCC(O)COc1ccc(-c2nc(C(F)(F)F)c[nH]2)cc1 (stereo not drawn)

>  <observed.value>
173 to 174 °C

$$$$

Data provenance is a melting point compilation (Tetko et al.; mined from patent text by program, amines drawn as free bases though some values may be those of a salt).
